test system: SN12C; experiment: NCI tumour cell line growth inhibition, 48 h
Calls of active or inactive are those of the source. Cut-off read from the data, not from the text of the source: active = GI50 up to about 1.1 µM and inactive = higher. Where a SMILES comes first, the peptide text is derived from it. Bridges are numbered along the chain shown (N, C = ends). The star is where a group is joined. Cbz = O=C(OCc1ccccc1)*
Outcomes: TRUE (active), FALSE (inactive)

| compound | answerLabel |
| --- | --- |
| CCn1sc2ccccc2c1=O | FALSE |
| COc1cccc2c1C(=O)c1c(O)c3c(c(O)c1C2=O)CC(O)(C(O)CO)CC3OC1CC2C(OC3COCC(C#N)N32)C(C)O1 (configuration not stated) | TRUE |
| COc1ncc(C#CC(=O)c2ccccc2)c(OC)n1 | FALSE |
| O=C(CCCCCCCCC(=O)N1C(=O)CC(=O)N(c2ccccc2)C1=S)N1C(=O)CC(=O)N(c2ccccc2)C1=S | FALSE |
| N=C(N)N/N=C/c1c[nH]c2ccccc12 | FALSE |
| COC(=O)C1CCCCNC(=O)CCC(NC(=O)OCc2ccccc2)C(=O)N1 (stereo not drawn) (Cbz-Glu-Lys-OMe; lactam 1-2; configuration not given here) | FALSE |
| O=c1[nH]nc(Cc2ccccc2)n1CCCl | FALSE |

----------
system: OVCAR-8; test: NCI tumour cell line growth inhibition, 48 h
Calls of active or inactive are those of the source. No stated cut-off is given here; in the data, active = GI50 up to about 1.1 µM and inactive = higher.
measuredParameter: GI50

| compound | obsValue |
| --- | --- |
| Cc1cc(C)c(C2CC(O)C(CO)O2)cc1C (stereo not given) | > 100 µM (inactive) |
| Brc1cccc(C2SCc3nc4ccccc4n32)c1 (stereo not given) | 22.5 µM (inactive) |
| CCCCn1c(C)c(C(=O)OCC)s/c1=N/Nc1nc2ccccc2nc1-c1ccccc1 | 56.2 µM (inactive) |
| C[C@H]1C=C2[C@@H]3CC(C)(C(=O)O)CC[C@]3(C)CC[C@]2(C)[C@]2(C)CC[C@H]3C(C)(C)[C@@H](OC(=O)c4cccc5c(=O)c6ccccc6[nH]c45)CC[C@]3(C)[C@@H]12 (stereo not given in full) | 41.7 µM (inactive) |
| c1ccc2[nH]c(-c3cscn3)nc2c1 | > 100 µM (inactive) |
| COC(=O)C1=C(C(=O)OC)SC(=CC#CC=C2SC(C(=O)OC)=C(C(=O)OC)S2)S1 | 5.04 µM (inactive) |
| COc1cc(Cn2c3c(c4cc(O)ccc42)Cc2ccccc2C3=O)cc(OC)c1 | 59.6 µM (inactive) |
| CSc1nc(C#N)c(N)n1C | > 100 µM (inactive) |
| CC(C)C1N2CCCCC2[C@@H]2c3[nH]c4ccccc4c3CCN12 (stereo not given in full) | > 100 µM (inactive) |
| Cc1c(OCc2cccc3ccccc23)ccc2c(=O)cc(SCCN3CCOCC3)oc12 | > 100 µM (inactive) |

----------
system: NCI-H460; test: NCI tumour cell line growth inhibition, 48 h
Calls of active or inactive are those of the source. Rule as the data show it: active = GI50 up to about 1.1 µM and inactive = higher.
Outcomes: TRUE (active), FALSE (inactive)

| compound | answerLabel |
| --- | --- |
| CC[C@@H](C(=O)[C@@H](C)[C@@H](O)[C@H](C)CCc1ccc(C)c(O)c1C(=O)O)[C@H]1O[C@](CC)([C@H]2CC[C@](O)(CC)[C@H](C)O2)C[C@@H]1C [LASALOCID A SODIUM] | FALSE |
| O=C(CSc1nc(=O)c(-c2ccccc2NC(=O)C(F)(F)F)n[nH]1)NC(=O)Nc1ccccc1 | FALSE |
| CCOC(=O)/C(=C\c1cccc(C)c1)C(C)=O | FALSE |
| CC1CCP(=O)(c2ccccc2)c2ccccc21 (stereo not drawn) | FALSE |
| COC1(OC)CC2C=C(S(=O)(=O)c3ccccc3)C1N(Cc1ccccc1)C2=O (stereo not drawn) | FALSE |
| Nc1c(-c2ccccc2)c2ccc([N+](=O)[O-])cc2c(=O)n1-c1cccc(C(=O)O)c1 | FALSE |
| CCOC(=O)c1cc(/C=C/C(C)=C/C(=O)OC)oc1C | FALSE |
| COc1c2nc(CCl)[nH]c(=O)c2c(OC)c2nc(CCl)[nH]c(=O)c12 | FALSE |
| COc1ccc2c(C(=O)c3c(C)n(CCN4CCOCC4)c4ccccc34)cccc2c1 | FALSE |
| COC1/C=C\OC2(C)Oc3c(C)c(O)c4c(O)c(c(CN(C)C)c(O)c4c3C2=O)NC(=O)/C(C)=C\C=C/C(C)C(O)C(C)C(O)C(C)C(OC(C)=O)C1C (stereo not drawn) | FALSE |
| CC(=O)NC1C(Sc2ncn(C3OC(CO)C(O)C(O)C3NC(C)=O)n2)OC(CO)C(O)C1O (stereo not drawn) | FALSE |
| C/C(=N\NC(=S)NC(C)C)c1nc2cccnc2[nH]1 | FALSE |
| C=CCNC(=O)N(CCCC(NC(C)=O)C(=O)NCc1ccccc1)Cc1ccccc1 (stereo not drawn) | FALSE |
| COc1cc(Cl)c2c3c(c(C(C)=O)oc13)CCC2 | FALSE |
| CCCC(=O)NC1CCc2cc(OC)c(OC)c(OC)c2-c2ccc(OC)c(=O)cc21 (stereo not drawn) | TRUE |
| CCC12C=CCN3CC[C@]4(C(=C(C(=O)OC)[C@@H]1Nc1ccn(C5OC(COC(C)=O)C(OC(C)=O)C5OC(C)=O)c(=O)n1)Nc1ccccc14)C32 (stereo partly drawn) | FALSE |
| CC12CC(=O)C3C(CCC4=CC(=O)CCC43C)C1CC=C2CC(=O)O (stereo not drawn) | FALSE |
| CCCC(C)NC(=O)c1ccc(N(C)Cc2cnc3nc(N)nc(N)c3n2)cc1 (stereo not drawn) | FALSE |
